assay: Half life in Sprague-Dawley rat at 10 mg/kg, po measured for 24 hrs by LC-MS/MS analysis; assay type: ADME, organism-based; conditions: in vivo
readout type: half-life (h)
Provide only the numeric value, understood in h.

QUERY: Which half-life value is on record for `O=C1NCCCCn2cc(cn2)-c2cnc3ccc(cc3c2)CCn2nc(ccc2=O)-c2ccc1c(C(F)(F)F)c2` ?
RESULT: 2.49

###

assay: Apparent volume of distribution in Sprague-Dawley rat at 2 mg/kg, iv measured for 24 hrs by LC-MS/MS analysis; format: ADME, organism-based; conditions: in vivo, read-out: Vz
readout type: Vd (L/kg)
Report the figure in L/kg without appending any unit label.

QUERY: Value lookup for Vd; key = `O=C1NCCCCn2cc(cn2)-c2cnc3ccc(cc3c2)CCn2nc(ccc2=O)-c2ccc1c(C(F)(F)F)c2`
RESULT: 3.47

###

The entries below come with measured Papp A→B at 2 h, 10 µM values attached.
assay: Apparent permeability across apical to basolateral side in human Caco-2 cells at 10 uM incubated for 120 mins by LC-MS/MS analysis; assay type: ADME, cell-based
Kindly provide the numeric value in ×10⁻⁶ cm/s only, without the unit symbol.

smi	readout type	observed
O=C1NCCCCn2cc(cn2)-c2cnc3ccc(cc3c2)CCn2nc(ccc2=O)-c2ccc1c(C(F)(F)F)c2	Papp A→B at 2 h, 10 µM	0.53

QUERY: Requested read-out: Papp A→B at 2 h, 10 µM. Entry: `O=C1NCCCCCn2cc(cn2)-c2cnc3ccc(cc3c2)CCn2nc(ccc2=O)-c2ccc1c(C(F)(F)F)c2`
RESULT: 0.29

###

molecular target: Hepatocyte growth factor receptor (Homo sapiens, UniProt P08581)
Sequence (P08581 whole entry): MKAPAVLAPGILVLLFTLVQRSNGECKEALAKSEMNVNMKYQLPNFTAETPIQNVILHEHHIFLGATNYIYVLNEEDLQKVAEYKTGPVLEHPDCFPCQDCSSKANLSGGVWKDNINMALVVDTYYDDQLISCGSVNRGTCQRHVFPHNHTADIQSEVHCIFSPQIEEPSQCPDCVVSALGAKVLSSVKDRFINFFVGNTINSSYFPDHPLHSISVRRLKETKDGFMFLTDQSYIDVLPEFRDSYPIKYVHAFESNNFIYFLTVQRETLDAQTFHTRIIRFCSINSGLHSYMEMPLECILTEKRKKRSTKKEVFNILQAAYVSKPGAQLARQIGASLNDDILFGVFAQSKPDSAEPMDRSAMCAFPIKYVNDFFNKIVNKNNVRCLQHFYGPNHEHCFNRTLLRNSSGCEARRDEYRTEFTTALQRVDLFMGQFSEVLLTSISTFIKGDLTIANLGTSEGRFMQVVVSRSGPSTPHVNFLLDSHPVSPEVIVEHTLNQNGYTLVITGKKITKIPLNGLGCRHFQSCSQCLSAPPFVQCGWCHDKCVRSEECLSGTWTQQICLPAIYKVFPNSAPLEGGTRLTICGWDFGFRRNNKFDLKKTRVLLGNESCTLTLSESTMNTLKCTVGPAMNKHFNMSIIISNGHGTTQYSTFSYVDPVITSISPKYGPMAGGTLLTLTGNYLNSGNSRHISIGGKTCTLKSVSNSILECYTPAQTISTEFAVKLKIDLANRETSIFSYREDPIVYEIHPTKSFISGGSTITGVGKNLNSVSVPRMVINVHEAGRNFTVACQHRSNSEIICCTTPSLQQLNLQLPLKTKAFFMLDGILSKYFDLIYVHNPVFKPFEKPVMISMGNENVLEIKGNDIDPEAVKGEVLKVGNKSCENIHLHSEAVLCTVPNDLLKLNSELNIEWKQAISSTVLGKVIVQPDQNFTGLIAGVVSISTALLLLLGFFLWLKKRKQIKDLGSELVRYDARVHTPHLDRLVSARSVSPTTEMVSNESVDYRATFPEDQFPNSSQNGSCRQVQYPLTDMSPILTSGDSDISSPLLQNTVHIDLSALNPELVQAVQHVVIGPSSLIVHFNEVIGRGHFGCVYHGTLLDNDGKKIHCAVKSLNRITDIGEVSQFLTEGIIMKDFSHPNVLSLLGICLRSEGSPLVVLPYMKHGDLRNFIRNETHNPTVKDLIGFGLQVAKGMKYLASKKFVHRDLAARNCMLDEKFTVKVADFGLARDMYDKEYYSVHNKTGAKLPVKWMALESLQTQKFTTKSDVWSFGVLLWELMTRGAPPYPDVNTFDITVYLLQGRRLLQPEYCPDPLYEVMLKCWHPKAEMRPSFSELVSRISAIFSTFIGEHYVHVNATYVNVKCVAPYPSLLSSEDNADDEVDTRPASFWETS
Consider the cut-off 0.02 µM. If the recorded IC50 is strictly smaller, the label is Condition met; if not, the label is Condition not met.

Worked examples, 8 molecules total:
smi	assigned category
Cn1cc(-c2cnc3ccc(CCn4nc(-c5cccc(F)c5)ccc4=O)cc3c2)cn1	Condition met
Cn1cc(-c2cnc3ccc(CCn4nc(-c5cc(F)c(F)c(F)c5)ccc4=O)cc3c2)cn1	Condition met
O=c1ccc(-c2ccc(N3CCOCC3)cc2)nn1CCc1ccc2ncccc2c1	Condition not met
CNC(=O)c1ccc(-c2ccc(=O)n(CCOc3ccc4ncc(-c5cnn(C)c5)cc4c3)n2)cc1C(F)(F)F	Condition not met
CNC(=O)c1ccc(-c2ccc(=O)n(CCc3ccc4ncc(-c5cnn(C)c5)cc4c3)n2)cc1	Condition met
O=c1ccc(-c2ccccc2)nn1CCc1ccc2ncc(N3CCOCC3)cc2c1	Condition not met
Cn1cc(-c2cnc3ccc(CCn4nc(-c5cccc([N+](=O)[O-])c5)ccc4=O)cc3c2)cn1	Condition met
CNC(=O)c1ccc(-c2ccc(=O)n(CCc3ccc4ncc(-c5cnn(CCO)c5)cc4c3)n2)cc1C(F)(F)F	Condition met

QUERY: Does this molecule meet the criterion IC50 < 0.02 µM? `COc1cccc(-c2ccc(=O)n(CCc3ccc4ncc(-c5cnn(C)c5)cc4c3)n2)c1`
RESULT: Condition met

QUERY: Same lookup for `O=c1ccc(-c2ccccc2)nn1Cc1ccc2ncc(N3CCOCC3)cc2c1` , please.
RESULT: Condition not met

QUERY: Now consider `Cn1cc(-c2cnc3ccc(CCn4nc(-c5cccc(N)c5)ccc4=O)cc3c2)cn1` .
RESULT: Condition met

QUERY: Now consider `Cn1cc(-c2cnc3ccc(CCn4nc(-c5ccc(F)cc5)ccc4=O)cc3c2)cn1` and answer again.
RESULT: Condition met

QUERY: Entry to check: `O=c1ccc(-c2ccccc2)nn1Cc1ccc2ncccc2c1`
RESULT: Condition not met

QUERY: Now the same for `Cn1cc(-c2cnc3ccc(CCn4nc(-c5cccc(C(F)(F)F)c5)ccc4=O)cc3c2)cn1`
RESULT: Condition met

QUERY: What about `CNC(=O)c1ccc(-c2ccc(=O)n(CCc3ccc4ncc(-c5cn[nH]c5)cc4c3)n2)cc1C(F)(F)F` ?
RESULT: Condition met
